tested on: MYCN; test: 3' UTR reporter interaction score (median-centred robust z-score of log2 firefly/Renilla activity); higher = less repression of the 3' UTR reporter; conditions: HEK293T; 48 h
# 3' UTR reporter interaction score annotations
In your answer, state the number alone without any accompanying words.

| Sequence Content | Readout | Result |
| --- | --- | --- |
| UAGCAGCACGUAAAUAUUGGCG | 3' UTR reporter interaction score | 0.0935 |
| AGGGUGUUUCUCUCAUCUCU | 3' UTR reporter interaction score | 1.22 |

For reference, reported 3' UTR reporter interaction score for GCGUGCGCCGGCCGGCCGCC stands at -1.25

For reference, reported 3' UTR reporter interaction score for CUACAAAGGGAAGCACUUUCUC stands at -0.614

----------
tested on: PHOX2B; test: 3' UTR reporter interaction score (median-centred robust z-score of log2 firefly/Renilla activity); higher = less repression of the 3' UTR reporter; settings: HEK293T; 48 h
# 3' UTR reporter interaction score annotations
In your answer, state the number alone without any accompanying words.

| Sequence Content | Readout | Result |
| --- | --- | --- |
| AUUACAUGGCCAAUCUC | 3' UTR reporter interaction score | 1.43 |
| ACAGCAGGCACAGACAGGCAG | 3' UTR reporter interaction score | 0.072 |
| UAAGUGCUUCCAUGUUUGAGUGU | 3' UTR reporter interaction score | 0.566 |

For reference, reported 3' UTR reporter interaction score for AGAUCGACCGUGUUAUAUUCGC stands at -0.0818

For reference, reported 3' UTR reporter interaction score for CCCAGUGUUCAGACUACCUGUUC stands at -0.196

For reference, reported 3' UTR reporter interaction score for UGUAACAGCAACUCCAUGUGGA stands at -2.2

For reference, reported 3' UTR reporter interaction score for UGAGCUGCUGUACCAAAAU stands at 1.09

For reference, reported 3' UTR reporter interaction score for UUCACAGUGGCUAAGUUCUGC stands at 0.845

For reference, reported 3' UTR reporter interaction score for ACUUACAGACAAGAGCCUUGCUC stands at 1.47

For reference, reported 3' UTR reporter interaction score for CGCAUCCCCUAGGGCAUUGGUGU stands at 0.221

For reference, reported 3' UTR reporter interaction score for ACAGUCUGCUGAGGUUGGAGC stands at 0.189

For reference, reported 3' UTR reporter interaction score for CAAAAAUCUCAAUUACUUUUGC stands at 0.42

For reference, reported 3' UTR reporter interaction score for UAGGUAGUUUCCUGUUGUUGG stands at 0.179

For reference, reported 3' UTR reporter interaction score for UUCCCUUUGUCAUCCUAUGCCU stands at -5.45

For reference, reported 3' UTR reporter interaction score for AUCAUAGAGGAAAAUCCAUGUU stands at 0.462

For reference, reported 3' UTR reporter interaction score for GAAAACAGCAAUUACCUUUGCA stands at 0.0564

----------
system: TP53; assay: 3' UTR reporter interaction score (median-centred robust z-score of log2 firefly/Renilla activity); higher = less repression of the 3' UTR reporter; conditions: HEK293T; 48 h
# 3' UTR reporter interaction score annotations

TP53 3' UTR reporter interaction score of UCUCUGGAGGGAAGCACUUUCUG is 0.306

TP53 3' UTR reporter interaction score of AUUACAUGGCCAAUCUC is 0.293

TP53 3' UTR reporter interaction score of CACACACUGCAAUUACUUUUGC is 0.266

TP53 3' UTR reporter interaction score of AUUGACACUUCUGUGAGUAG is 0.785

TP53 3' UTR reporter interaction score of UCGUGUCUUGUGUUGCAGCCG is -0.142

----------
tested on: MYT1L; assay: 3' UTR reporter interaction score (median-centred robust z-score of log2 firefly/Renilla activity); higher = less repression of the 3' UTR reporter; details: HEK293T; 48 h
Readout: 3' UTR reporter interaction score

// known answers, use as guide
| Sequence Content | Target Or Test System | 3' UTR reporter interaction score |
| --- | --- | --- |
| ACUUUAACAUGGAAGUGCUUUCU | MYT1L | 0.13 |
| CAGCAGCAAUUCAUGUUUUGAA | MYT1L | -4.35 |

For reference, reported 3' UTR reporter interaction score for AGGCGGGGCGCCGCGGGACCGC stands at -0.425

----------
test system: MYB; test: 3' UTR reporter interaction score (median-centred robust z-score of log2 firefly/Renilla activity); higher = less repression of the 3' UTR reporter; conditions: HEK293T; 48 h
Readout: 3' UTR reporter interaction score

// known answers, use as guide
| Sequence Content | Target Or Test System | 3' UTR reporter interaction score |
| --- | --- | --- |
| UCAAAUGCUCAGACUCCUGU | MYB | -3.31 |
| AUAAUACAUGGUUAACCUCUUU | MYB | 1.01 |
| AGCAGCAUUGUACAGGGCUAUGA | MYB | -1.03 |
| AUGGAGAUAGAUAUAGAAAU | MYB | -0.0865 |

For reference, reported 3' UTR reporter interaction score for AAUCCUUGGAACCUAGGUGUGAGU stands at 0.656

For reference, reported 3' UTR reporter interaction score for UGAUAUGUUUGAUAUAUUAGGU stands at -0.701

For reference, reported 3' UTR reporter interaction score for AAAAGCUGGGUUGAGAGGGCGAA stands at 1.19

For reference, reported 3' UTR reporter interaction score for CAAGUCACUAGUGGUUCCGUUUA stands at -0.363

For reference, reported 3' UTR reporter interaction score for CAACGGAAUCCCAAAAGCAGCU stands at -0.0583

For reference, reported 3' UTR reporter interaction score for UUCAAGUAAUUCAGGAUAGGUU stands at 1.26

For reference, reported 3' UTR reporter interaction score for GAGCUUAUUCAUAAAAGUGCAG stands at 0.663

----------
tested on: NOTCH1; test: 3' UTR reporter interaction score (median-centred robust z-score of log2 firefly/Renilla activity); higher = less repression of the 3' UTR reporter; settings: HEK293T; 48 h
# 3' UTR reporter interaction score annotations

// known answers, use as guide
| Sequence Content | Target Or Test System | 3' UTR reporter interaction score |
| --- | --- | --- |
| CAAAGCGCUUCUCUUUAGAGUG | NOTCH1 | 0.203 |
| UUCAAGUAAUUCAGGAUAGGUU | NOTCH1 | 1.02 |
| UAAAGCUAGAUAACCGAAAGU | NOTCH1 | 1.01 |

For reference, reported 3' UTR reporter interaction score for CAUAAAGUAGAAAGCACUAC stands at 0.3

For reference, reported 3' UTR reporter interaction score for CAAAGUGCCUCCCUUUAGAGUGU stands at 0.00359

For reference, reported 3' UTR reporter interaction score for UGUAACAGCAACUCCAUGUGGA stands at -0.0483

For reference, reported 3' UTR reporter interaction score for AGUAUUCUGUACCAGGGAAGGU stands at 0.758

For reference, reported 3' UTR reporter interaction score for GAACGCCUGUUCUUGCCAGGUGG stands at 0.125

For reference, reported 3' UTR reporter interaction score for ACUUGGGCACUGAAACAAUGUCC stands at -4.15

For reference, reported 3' UTR reporter interaction score for AGGGGGAAAGUUCUAUAGUCCU stands at -1.57

For reference, reported 3' UTR reporter interaction score for AUUACAUGGCCAAUCUC stands at 0.461

----------
test system: EZH2; test: 3' UTR reporter interaction score (median-centred robust z-score of log2 firefly/Renilla activity); higher = less repression of the 3' UTR reporter; conditions: HEK293T; 48 h
Readout: 3' UTR reporter interaction score
In your answer, state the number alone without any accompanying words.

For reference, reported 3' UTR reporter interaction score for UGGAGAGAAAGGCAGUUC stands at -0.838

For reference, reported 3' UTR reporter interaction score for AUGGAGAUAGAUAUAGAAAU stands at 1.16

For reference, reported 3' UTR reporter interaction score for AAUCAUACAGGGACAUCCAGUU stands at 1.15

----------
test system: EZH2; assay: 3' UTR reporter interaction score (median-centred robust z-score of log2 firefly/Renilla activity); higher = less repression of the 3' UTR reporter; details: HEK293T; 48 h
# 3' UTR reporter interaction score annotations

| Sequence Content | 3' UTR reporter interaction score |
| --- | --- |
| GCACAUUACACGGUCGACCUCU | -0.1 |
| UUCUCCAAAAGGGAGCACUUUC | -0.381 |
| UGGUCUAGGAUUGUUGGAGGAG | 1.07 |

EZH2 3' UTR reporter interaction score of UACCCAUUGCAUAUCGGAGUUG is -0.072

EZH2 3' UTR reporter interaction score of CAAAGAGGAAGGUCCCAUUAC is -0.46

EZH2 3' UTR reporter interaction score of ACAUAGAGGAAAUUCCACGUUU is 0.213

EZH2 3' UTR reporter interaction score of UGAGGUAGUAGAUUGUAUAGUU is -5.6

EZH2 3' UTR reporter interaction score of GUUGUGUCAGUUUAUCAAAC is 0.353

EZH2 3' UTR reporter interaction score of UCUGGCUCCGUGUCUUCACUCC is 0.8

EZH2 3' UTR reporter interaction score of UUCACCACCUUCUCCACCCAGC is 0.425

EZH2 3' UTR reporter interaction score of UAUGGCUUUUUAUUCCUAUGUGA is 0.742
